# Test target: human metabotropic glutamate receptor mGluR5 (Homo sapiens, UniProt P41594)
# Sequence (P41594 21-1212): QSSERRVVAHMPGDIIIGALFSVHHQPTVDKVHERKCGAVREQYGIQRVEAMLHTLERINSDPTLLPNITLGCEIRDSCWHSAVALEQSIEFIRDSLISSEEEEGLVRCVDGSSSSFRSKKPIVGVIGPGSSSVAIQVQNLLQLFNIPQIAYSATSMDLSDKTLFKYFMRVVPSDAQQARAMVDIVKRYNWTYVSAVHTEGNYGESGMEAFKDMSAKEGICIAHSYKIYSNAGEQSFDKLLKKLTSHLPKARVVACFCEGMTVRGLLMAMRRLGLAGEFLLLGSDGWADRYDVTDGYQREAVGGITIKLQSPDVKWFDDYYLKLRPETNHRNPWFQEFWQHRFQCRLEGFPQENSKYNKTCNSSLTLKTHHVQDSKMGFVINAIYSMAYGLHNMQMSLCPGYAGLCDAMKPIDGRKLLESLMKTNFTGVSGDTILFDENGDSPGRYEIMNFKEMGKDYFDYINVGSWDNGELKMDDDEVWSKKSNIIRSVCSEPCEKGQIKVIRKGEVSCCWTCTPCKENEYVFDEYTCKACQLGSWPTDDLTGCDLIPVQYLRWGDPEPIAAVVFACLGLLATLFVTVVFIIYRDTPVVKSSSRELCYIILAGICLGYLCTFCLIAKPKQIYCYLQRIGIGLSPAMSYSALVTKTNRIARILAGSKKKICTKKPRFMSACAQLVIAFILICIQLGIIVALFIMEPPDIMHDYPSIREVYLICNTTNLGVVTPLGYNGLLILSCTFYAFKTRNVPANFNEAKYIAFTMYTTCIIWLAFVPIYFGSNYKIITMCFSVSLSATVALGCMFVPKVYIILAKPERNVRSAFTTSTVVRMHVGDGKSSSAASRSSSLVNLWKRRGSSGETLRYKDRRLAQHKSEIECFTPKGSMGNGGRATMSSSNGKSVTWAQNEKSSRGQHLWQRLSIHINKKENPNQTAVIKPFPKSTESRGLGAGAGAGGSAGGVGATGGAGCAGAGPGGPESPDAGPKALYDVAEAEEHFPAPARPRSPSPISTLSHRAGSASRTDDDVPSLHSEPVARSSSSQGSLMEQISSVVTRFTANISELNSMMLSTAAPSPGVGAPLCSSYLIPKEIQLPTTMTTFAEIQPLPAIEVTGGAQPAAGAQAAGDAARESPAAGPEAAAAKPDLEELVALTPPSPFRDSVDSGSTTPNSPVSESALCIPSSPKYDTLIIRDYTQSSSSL
# Experimental protocol: Cytosolic Calcium studies with stably transfected cells (FLIPR)
# Test context: CHO-K1 cells with inducible human mGluR5; test compound added 5 minutes before L-quisqualic acid (concentration giving ~80% of the maximal signal); read-out: mGluR5_FLIPR_h_ CHO_NAM IC50
Listed compounds paired with reported IC50
Entry rule: numbers only, all in nM.

[
  {
    "Compound": "CC1c2ccccc2CCN1C(=O)c1cc2ccc(Cl)cn2n1 (centres unmarked) [drawing 1010]",
    "IC50 / nM": 102
  },
  {
    "Compound": "O=C(c1cc2ccc(Br)cn2n1)N1CCc2ncc(Br)cc2C1 [drawing 1011]",
    "IC50 / nM": 306
  },
  {
    "Compound": "CC1c2ccsc2CCN1C(=O)c1cc2ccc(Br)cn2n1 (centres unmarked) [drawing 1012]",
    "IC50 / nM": 167
  },
  {
    "Compound": "CN1c2ccccc2CCN1C(=O)c1cc2ccc(Br)cn2n1 [drawing 1015]",
    "IC50 / nM": 410
  },
  {
    "Compound": "Cc1ccc2n1CCN(C(=O)c1cc3ccc(Br)cn3n1)C2C (centres unmarked) [drawing 1013]",
    "IC50 / nM": 178
  },
  {
    "Compound": "CC1c2ccccc2CCN1C(=O)c1cc2ccc(Br)cn2n1 (centres unmarked) [drawing 1009]",
    "IC50 / nM": 218
  },
  {
    "Compound": "CC1c2ccoc2CCN1C(=O)c1cc2ccc(Br)cn2n1 (centres unmarked) [drawing 1014]",
    "IC50 / nM": 166
  }
]

// moving on: another record for IC50
Given the entry C[C@@H]1c2ccccc2CCN1C(=O)c1cc2c(Cl)cc(Cl)cn2n1 [drawing 1016] , report its measured IC50.
114

----------
Recorded IC50 values for a group of compounds are listed next.
# Test target: transmembrane allosteric modulatory sites of mGluR5 receptors (Rattus norvegicus)
# Sequence (P31424 21-1203): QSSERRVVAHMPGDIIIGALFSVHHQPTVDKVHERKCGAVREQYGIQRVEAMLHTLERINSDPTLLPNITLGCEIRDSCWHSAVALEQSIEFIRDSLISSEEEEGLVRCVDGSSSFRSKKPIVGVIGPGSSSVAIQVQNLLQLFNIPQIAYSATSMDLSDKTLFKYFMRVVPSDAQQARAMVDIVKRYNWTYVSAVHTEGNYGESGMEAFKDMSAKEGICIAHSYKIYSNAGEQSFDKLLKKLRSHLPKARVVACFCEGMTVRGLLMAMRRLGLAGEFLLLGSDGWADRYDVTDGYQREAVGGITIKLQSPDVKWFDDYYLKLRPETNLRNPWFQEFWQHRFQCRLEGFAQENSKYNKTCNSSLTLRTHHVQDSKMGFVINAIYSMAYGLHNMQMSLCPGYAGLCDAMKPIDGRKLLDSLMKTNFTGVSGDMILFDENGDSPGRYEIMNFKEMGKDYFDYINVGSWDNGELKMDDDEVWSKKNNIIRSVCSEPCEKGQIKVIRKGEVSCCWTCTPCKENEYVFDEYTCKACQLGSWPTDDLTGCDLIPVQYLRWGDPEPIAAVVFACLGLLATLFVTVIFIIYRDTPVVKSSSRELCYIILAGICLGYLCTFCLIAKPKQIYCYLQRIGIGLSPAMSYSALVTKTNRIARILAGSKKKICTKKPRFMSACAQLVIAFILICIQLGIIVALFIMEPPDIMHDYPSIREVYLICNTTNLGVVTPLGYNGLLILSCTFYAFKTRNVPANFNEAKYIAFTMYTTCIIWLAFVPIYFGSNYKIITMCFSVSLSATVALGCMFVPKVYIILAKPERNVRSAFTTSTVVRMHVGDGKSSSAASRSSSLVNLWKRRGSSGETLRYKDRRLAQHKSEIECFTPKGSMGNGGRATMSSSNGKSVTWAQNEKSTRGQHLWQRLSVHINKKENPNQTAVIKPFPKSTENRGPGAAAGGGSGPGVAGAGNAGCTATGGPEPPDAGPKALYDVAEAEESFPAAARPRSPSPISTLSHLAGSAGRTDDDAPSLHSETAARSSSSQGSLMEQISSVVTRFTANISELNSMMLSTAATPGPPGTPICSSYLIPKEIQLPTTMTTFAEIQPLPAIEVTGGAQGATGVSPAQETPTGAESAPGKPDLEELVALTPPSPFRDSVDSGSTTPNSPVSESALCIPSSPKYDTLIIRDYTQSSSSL
# Experimental protocol: [3H]-MMPEP binding assay in rat cortical membranes
# Test context: radioligand [3H]-MMPEP, 60 minutes at room temperature, read-out: mGluR5_M_ MPEP_r_CTX_ IC50
# Protocol: Preparation of rat cortical membranes: The resulting pellet is re-suspended in 20 volumes of distilled water and centrifuged for 20 minutes at 8000 x g. […] All centrifugation steps are carried out at 4°C. Alternatively, assays are performed with [^3H]-MMPEP (2-(3-methoxyphenylethynyl)-6-methylpyridine hydrochloride) as radioligand. […] Incubations are terminated using a Millipore filter system.
Numeric answer only, unit µM assumed.

[
  {
    "Compound": "C[C@@H]1c2ccccc2CCN1C(=O)c1cc2c(Cl)cc(Cl)cn2n1 [drawing 1027]",
    "IC50, µM": 0.043
  },
  {
    "Compound": "CC1c2ccoc2CCN1C(=O)c1cc2ccc(Br)cn2n1 (stereo not shown) [drawing 1026]",
    "IC50, µM": 0.655
  },
  {
    "Compound": "CC1c2ccccc2CCN1C(=O)c1cc2ccc(Cl)cn2n1 (stereo not shown) [drawing 1025]",
    "IC50, µM": 0.26
  }
]

Consider the additional compound presented here.
Given CC1c2ccccc2CCN1C(=O)c1cc2ccc(Br)cn2n1 (stereo not shown) [drawing 1024] , state its recorded IC50.
0.4

----------
# Test target: mGluR5 receptors (Rattus norvegicus)
# Construct: Primary astrocyte cultures are prepared from cortices of newborn rats; endogenous in cells
# Experimental protocol: Cytosolic Calcium studies with astrocytes (astrocyte culture test, FLIPR)
# Test context: primary rat cortical astrocytes, 14-15 DIV; 10 minutes pre-incubation, L-quisqualate 100 nM; read-out: mGluR5_FLIPRr_rpA IC50
Property measured: pIC50
Quick note: pIC50 means taking -log10 of the concentration in moles per liter.

Examples with their reported pIC50 follow.
[
  {
    "Compound": "O=C(c1cc2ccc(Br)cn2n1)N1CCc2ncc(Br)cc2C1 [drawing 1019]",
    "Measurement": 6.97
  },
  {
    "Compound": "CC1c2ccoc2CCN1C(=O)c1cc2ccc(Br)cn2n1 (stereo not shown) [drawing 1022]",
    "Measurement": 7.37
  }
]

// below: pIC50 requested for another compound
May I ask what pIC50 has been recorded for CC1c2ccccc2CCN1C(=O)c1cc2ccc(Br)cn2n1 (stereo not shown) [drawing 1017] ?
6.82

----------
# Test target: mGluR5 receptors (Rattus norvegicus, UniProt P31424)
# Construct: Primary astrocyte cultures are prepared from cortices of newborn rats; endogenous in cells
# Sequence (P31424 21-1203): as above
# Experimental protocol: Cytosolic Calcium studies with astrocytes (astrocyte culture test, FLIPR)
# Test context: primary rat cortical astrocytes, 14-15 DIV; 10 minutes pre-incubation, L-quisqualate 100 nM; read-out: mGluR5_FLIPRr_rpA IC50
# IC50 listing for each entry below
// return numeric value only (unit: nM, not printed)

[
  {
    "Molecule": "CC1c2ccsc2CCN1C(=O)c1cc2ccc(Br)cn2n1 (stereo not shown) [drawing 1020]",
    "Test target": "mGluR5 receptors (Rattus norvegicus, UniProt P31424)",
    "Measurement units": "nM",
    "IC50": 51
  },
  {
    "Molecule": "Cc1ccc2n1CCN(C(=O)c1cc3ccc(Br)cn3n1)C2C (stereo not shown) [drawing 1021]",
    "Test target": "mGluR5 receptors (Rattus norvegicus, UniProt P31424)",
    "Measurement units": "nM",
    "IC50": 148
  },
  {
    "Molecule": "CC1c2ccccc2CCN1C(=O)c1cc2ccc(Cl)cn2n1 (stereo not shown) [drawing 1018]",
    "Test target": "mGluR5 receptors (Rattus norvegicus, UniProt P31424)",
    "Measurement units": "nM",
    "IC50": 45
  }
]

Let us move to another entry and its IC50.
# IC50 lookup, item CN1c2ccccc2CCN1C(=O)c1cc2ccc(Br)cn2n1 [drawing 1023]
156
